Experiment: Inhibition of Mycobacterium tuberculosis ThyX using [5-3H]dUMP as substrate after 10 mins by liquid scintillation counting analysis
Reported Endpoint: pIC50
The value called pIC50 is obtained by taking minus log10 of the concentration in mol/L.

Return value of pIC50 for input `CCCCCCCCCCCOCc1cn([C@H]2C[C@H](O)[C@@H](COP(=O)(O)O)O2)c(=O)[nH]c1=O` , no commentary.
5.08
